Taken from the supplement of paper PMC9170038.

Recorded measurements of apparent KD of MS2 coat protein, one per entry
# Tested on: MS2 coat protein
# ASSAY_OVERVIEW: apparent KD of MS2 coat protein; designed switch direction (-1 OFF switch, 1 ON switch): -1; higher = weaker reporter binding
# CONDITION_CONTEXT: input ligand: microRNA oligo, concentration not stated

{"columns": ["ITEM_SEQUENCE", "apparent KD of MS2 coat protein / nM"],
 "data": [
  ["UGUUGUCGCGCAGGAUAUGAGGAUCACCCAUAUACAGGAUAUGAAAAGAAGGGUCUGAGGAUCACCCAGAAGGGCGGGACAACU [pwkr exNG2 2xF5 2xFMN.27] (Eterna round: R96, puzzle: Exclusion NG 2)", 99.9],
  ["CACCGUUACAGAGGAUAUGGUACAUGAGGAUCACCCAUGUAAUAAAUGAGAAUUUCGGAUGUAUUCCAGAAGGCUGAAAUCGGC [Ostricism 64 - Jieux - Exclusion NG 2] (Eterna round: R96, puzzle: Exclusion NG 2)", 30.2],
  ["GGAUAAAACUGAGGAUAUGCGUAUAGAUAGAGAGCAGAAGGCAGACAUGAGGAUCACCCAUGUGAGUUCUCGAUAAGAAACACG [Prohibition 58 - Jieux - Exclusion NG 1] (Eterna round: R96, puzzle: Exclusion NG 1)", 36.1],
  ["ACAUGACUGCUAGGAUAUAGAUGACAUGAGGAUCACCCAUGUUGUCCCAUGUUUAUGGAAACGGACUAGAAGGAGUAGUAUAUG [Ex NG2 #14] (Eterna round: R96, puzzle: Exclusion NG 2)", 23.4]
]}

###

# Test system: MS2 coat protein
# ASSAY_OVERVIEW: apparent KD of MS2 coat protein; designed switch direction (-1 OFF switch, 1 ON switch): 1; higher = weaker reporter binding
# CONDITION_CONTEXT: input ligand: FMN 200 uM
QUANTITY_NAME: apparent KD of MS2 coat protein

{"columns": ["ITEM_SEQUENCE", "QUANTITY_NAME", "RESULT"],
 "data": [
  ["AAAUAAAACACAGGAUAUGCAGUCAAAACGACGGCAGAAGGGUGAGACAUGAGGAUCACCCAUGUACACAUCCCACGGAUGUGC [Anonised] (Eterna round: R96, puzzle: Same State NG 1)", "apparent KD of MS2 coat protein", "1060 nM"],
  ["UUGAAGAAUUAAGGAUAUUGAGUACAUAUGUUUAACAUGAGGAUCACCCAUGUGGGUUGCGGUAUCGAGAAGGUAAAUUAAUAG [Mat - same State NG 2 - JL mod - D66] (Eterna round: R96, puzzle: Same State NG 2)", "apparent KD of MS2 coat protein", "94.4 nM"],
  ["UCUUGGUUUUUGCUCGUUUUUUGUGUUGAACAUGAGGAUCACCCAUGUAUUGUACAAUCCGGUUUGAUGAUGGUCCA [JMF 47] (Eterna round: R96, puzzle: Sensor for hsa-mir-208a)", "apparent KD of MS2 coat protein", "125 nM"]
]}

###

# Tested on: MS2 coat protein
# ASSAY_OVERVIEW: apparent KD of MS2 coat protein, switch ON state; designed switch direction (-1 OFF switch, 1 ON switch): -1; higher = weaker reporter binding
# CONDITION_CONTEXT: FMN input: 0 or 200 uM; Eterna round: R93 (includes R88 designs)

{"columns": ["ITEM_SEQUENCE", "apparent KD of MS2 coat protein"],
 "data": [
  ["AAAAAGUCAGGAUAUGUCAAAGGUCACGAAAGUGACAAAGGACAGAAGGGACAUGAGGAUCACCCAUGUAAAAA [Fiskers Exclusion 4 D1]", "53.5 nM"],
  ["AGGAUGUCAGGAUAUGUGUAAAGAAUAAAACAAAUAACAACACAGAAGGGACAUGAGGAUCACCCAUGUUACGA [May 43]", "31.1 nM"],
  ["AAGAAGUCAGGAUAUGCUGCUCGUCACUUGCGUGAUGAGUAGCAGAAGGGACAUGAGGAUCACCCAUGUAAAGA [Exclusion4-cac2]", "50.7 nM"],
  ["CUCAUGUCAGGAUAUGUCAAAAGUCACAAAAGUGACAAAAGACAGAAGGGACAUGAGGAUCACCCAUGUAAAAA [Starry Exclusion 4.6 (starryjess round 1 mod)]", "20.6 nM"],
  ["AAACGUACAGGAUAUACGAAAAGAUUACGAAAGUAAUCGGGACAUGAGGAUCACCCAUGUAGAAGGGUACGAAA [Mod2 of Meechl 64% 4]", "48 nM"],
  ["AACAAGUGAGGAUAUCGGAAAUGUAAAUAAGUUUCACAAAACGAGAAGGCACAUGAGGAUCACCCAUGUAAAUA [JR_Exc004_Sub013]", "32.1 nM"]
]}
